Tested on: Human immunodeficiency virus 2
Test: Antiviral activity against HIV 2 subtype A clinical isolate expressing 54M-65E-71I-74N-90M protease gene sequence from HIV2 infected patient plasma and PBMC obtained at T1 during compound treatment measured after 13 months
Format: functional, organism-based
Details: Human immunodeficiency virus 2, subtype A
List of IC50 values.
Entry rule: numbers only, all in µM.

Reference set (2 entries):
In: Tell me the measured IC50 of CC(C)(C)NC(=O)[C@@H]1CN(Cc2cccnc2)CCN1C[C@@H](O)C[C@@H](Cc1ccccc1)C(=O)N[C@H]1c2ccccc2C[C@H]1O [INDINAVIR] , please.
Out: 10

In: What value of IC50 has been recorded for this entry: CC(C)CN(C[C@@H](O)[C@H](Cc1ccccc1)NC(=O)O[C@H]1CO[C@H]2OCC[C@H]21)S(=O)(=O)c1ccc(N)cc1 [DARUNAVIR]
Out: 0.2

Continuing:
In: Need IC50 of CCC[C@@]1(CCc2ccccc2)CC(O)=C([C@H](CC)c2cccc(NS(=O)(=O)c3ccc(C(F)(F)F)cn3)c2)C(=O)O1 [TIPRANAVIR] , thanks.
Out: 4.7

In: // returns reported IC50 for input CC(C)CN(C[C@@H](O)[C@H](Cc1ccccc1)NC(=O)O[C@H]1CCOC1)S(=O)(=O)c1ccc(N)cc1 [AMPRENAVIR]
Out: 4

In: // lookup IC50 for Cc1c(O)cccc1C(=O)N[C@@H](CSc1ccccc1)[C@H](O)CN1C[C@H]2CCCC[C@H]2C[C@H]1C(=O)NC(C)(C)C [NELFINAVIR]
Out: 3.8

In: What value of measured IC50 is listed for COC(=O)N[C@H](C(=O)N[C@@H](Cc1ccccc1)[C@@H](O)CN(Cc1ccc(-c2ccccn2)cc1)NC(=O)[C@@H](NC(=O)OC)C(C)(C)C)C(C)(C)C [ATAZANAVIR] ?
Out: 0.4

In: // query IC50 value for entry Cc1cccc(C)c1OCC(=O)N[C@@H](Cc1ccccc1)[C@@H](O)C[C@H](Cc1ccccc1)NC(=O)[C@H](C(C)C)N1CCCNC1=O [LOPINAVIR]
Out: 0.4

====

Tested on: Human immunodeficiency virus 2
Assay: Antiviral activity against HIV 2 subtype B clinical isolate expressing 14Y-61N-99L protease gene sequence from HIV2 infected patient plasma and PBMC obtained before compound treatment measured after 13 months
Assay type: functional, organism-based
Conditions: Human immunodeficiency virus 2, subtype B\r\n
REPORTED METRIC: IC90 (µM)
Numeric answer only, unit µM assumed.

Below are worked cases with known answers.
In: Which IC90 value is on record for "CC(C)CN(C[C@@H](O)[C@H](Cc1ccccc1)NC(=O)O[C@H]1CO[C@H]2OCC[C@H]21)S(=O)(=O)c1ccc(N)cc1" ?
Out: 0.01

In: Any idea what its IC90 is? The compound is "COC(=O)N[C@H](C(=O)N[C@@H](Cc1ccccc1)[C@@H](O)CN(Cc1ccc(-c2ccccn2)cc1)NC(=O)[C@@H](NC(=O)OC)C(C)(C)C)C(C)(C)C"
Out: 0.3

In: # get_value(readout='IC90', item= "Cc1cccc(C)c1OCC(=O)N[C@@H](Cc1ccccc1)[C@@H](O)C[C@H](Cc1ccccc1)NC(=O)[C@H](C(C)C)N1CCCNC1=O" )
Out: 0.07

In: Fill in: IC90 of "Cc1c(O)cccc1C(=O)N[C@@H](CSc1ccccc1)[C@H](O)CN1C[C@H]2CCCC[C@H]2C[C@H]1C(=O)NC(C)(C)C" is ___
Out: 1

In: Tell me the measured IC90 of "CCC[C@@]1(CCc2ccccc2)CC(O)=C([C@H](CC)c2cccc(NS(=O)(=O)c3ccc(C(F)(F)F)cn3)c2)C(=O)O1" , please.
Out: 1.7

In: What does the data say about its IC90? Entry: "CC(C)(C)NC(=O)[C@@H]1C[C@@H]2CCCC[C@@H]2CN1C[C@@H](O)[C@H](Cc1ccccc1)NC(=O)[C@H](CC(N)=O)NC(=O)c1ccc2ccccc2n1"
Out: 82

In: Fill in: IC90 of "CC(C)CN(C[C@@H](O)[C@H](Cc1ccccc1)NC(=O)O[C@H]1CCOC1)S(=O)(=O)c1ccc(N)cc1" is ___
Out: 4.6

Attention now shifts to the item below.
In: Fill in the blank: the reported IC90 of "CC(C)(C)NC(=O)[C@@H]1CN(Cc2cccnc2)CCN1C[C@@H](O)C[C@@H](Cc1ccccc1)C(=O)N[C@H]1c2ccccc2C[C@H]1O" is ____.
Out: 0.6

====

Overview of reported IC90 across a group of compounds:
Tested on: Human immunodeficiency virus 2
Assay: Antiviral activity against HIV 2 subtype A clinical isolate expressing 14H-60K/N-65E protease gene sequence from HIV2 infected patient plasma and PBMC obtained before compound treatment measured after 13 months
Assay type: functional, organism-based
Settings: Human immunodeficiency virus 2, subtype A
Response body: numeric value in nM, unit text excluded.

In: # IC90 lookup, item CC(C)(C)NC(=O)[C@@H]1CN(Cc2cccnc2)CCN1C[C@@H](O)C[C@@H](Cc1ccccc1)C(=O)N[C@H]1c2ccccc2C[C@H]1O [INDINAVIR]
Out: 400

In: Quick one: IC90 of CCC[C@@]1(CCc2ccccc2)CC(O)=C([C@H](CC)c2cccc(NS(=O)(=O)c3ccc(C(F)(F)F)cn3)c2)C(=O)O1 [TIPRANAVIR] ?
Out: 2500

In: Returns the measured IC90 for the input compound. Input: CC(C)CN(C[C@@H](O)[C@H](Cc1ccccc1)NC(=O)O[C@H]1CCOC1)S(=O)(=O)c1ccc(N)cc1 [AMPRENAVIR]
Out: 6800

In: Recorded IC90 for COC(=O)N[C@H](C(=O)N[C@@H](Cc1ccccc1)[C@@H](O)CN(Cc1ccc(-c2ccccn2)cc1)NC(=O)[C@@H](NC(=O)OC)C(C)(C)C)C(C)(C)C [ATAZANAVIR] , please?
Out: 300

In: Look at this compound and give its reported IC90. CC(C)(C)NC(=O)[C@@H]1C[C@@H]2CCCC[C@@H]2CN1C[C@@H](O)[C@H](Cc1ccccc1)NC(=O)[C@H](CC(N)=O)NC(=O)c1ccc2ccccc2n1 [SAQUINAVIR]
Out: 50

In: Endpoint output: IC90 of Cc1cccc(C)c1OCC(=O)N[C@@H](Cc1ccccc1)[C@@H](O)C[C@H](Cc1ccccc1)NC(=O)[C@H](C(C)C)N1CCCNC1=O [LOPINAVIR] . Value?
Out: 200

In: Given the compound Cc1c(O)cccc1C(=O)N[C@@H](CSc1ccccc1)[C@H](O)CN1C[C@H]2CCCC[C@H]2C[C@H]1C(=O)NC(C)(C)C [NELFINAVIR] , what is its reported IC90?
Out: 800

Continuing:
In: Field request: IC90 | item: CC(C)CN(C[C@@H](O)[C@H](Cc1ccccc1)NC(=O)O[C@H]1CO[C@H]2OCC[C@H]21)S(=O)(=O)c1ccc(N)cc1 [DARUNAVIR]
Out: 30

====

Test system: Human immunodeficiency virus 2
Experiment: Antiviral activity against HIV 2 subtype A clinical isolate expressing 54M-65E-71I-74N-90M protease gene sequence from HIV2 infected patient plasma and PBMC obtained at T1 during compound treatment measured after 13 months
Format: functional, organism-based
Settings: Human immunodeficiency virus 2, subtype A
REPORTED METRIC: IC90

These recorded examples may help you get a feel for the data.
In: Request the reported IC90 associated with "COC(=O)N[C@H](C(=O)N[C@@H](Cc1ccccc1)[C@@H](O)CN(Cc1ccc(-c2ccccn2)cc1)NC(=O)[C@@H](NC(=O)OC)C(C)(C)C)C(C)(C)C"
Out: 1.8 µM

In: What IC90 value was documented for this compound, "CC(C)(C)NC(=O)[C@@H]1C[C@@H]2CCCC[C@@H]2CN1C[C@@H](O)[C@H](Cc1ccccc1)NC(=O)[C@H](CC(N)=O)NC(=O)c1ccc2ccccc2n1" ?
Out: > 12.5 µM

In: Form field: reported IC90 of "CCC[C@@]1(CCc2ccccc2)CC(O)=C([C@H](CC)c2cccc(NS(=O)(=O)c3ccc(C(F)(F)F)cn3)c2)C(=O)O1"
Out: 14 µM

In: Quick one: IC90 for "CC(C)CN(C[C@@H](O)[C@H](Cc1ccccc1)NC(=O)O[C@H]1CCOC1)S(=O)(=O)c1ccc(N)cc1" ?
Out: 60 µM

In: Which IC90 reading was recorded for the compound "Cc1c(O)cccc1C(=O)N[C@@H](CSc1ccccc1)[C@H](O)CN1C[C@H]2CCCC[C@H]2C[C@H]1C(=O)NC(C)(C)C" ?
Out: 53 µM

Others:
In: GET /values?readout=IC90&item= "Cc1cccc(C)c1OCC(=O)N[C@@H](Cc1ccccc1)[C@@H](O)C[C@H](Cc1ccccc1)NC(=O)[C@H](C(C)C)N1CCCNC1=O"
Out: 3.3 µM

In: What value of IC90 has been reported for the following compound? "CC(C)(C)NC(=O)[C@@H]1CN(Cc2cccnc2)CCN1C[C@@H](O)C[C@@H](Cc1ccccc1)C(=O)N[C@H]1c2ccccc2C[C@H]1O"
Out: 82 µM

In: Return reported IC90; argument: "CC(C)CN(C[C@@H](O)[C@H](Cc1ccccc1)NC(=O)O[C@H]1CO[C@H]2OCC[C@H]21)S(=O)(=O)c1ccc(N)cc1"
Out: 1.4 µM
